tested on: PPARg:RXRa 270nM:90nM, anti-RXR (NR concentration 270 nM, RXRa partner concentration 90 nM); test: PBM binding z-score (relative to random genomic background probes); higher = stronger binding; sequences stand for … in GC…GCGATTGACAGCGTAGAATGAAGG
Lab note: anything with PBM binding z-score at or over 6 counts as 1; the rest go in 0.

Please indicate if the recorded PBM binding z-score for CAAACTAGGTCACGAATGGTCAAAGTCGAATGAC meets or exceeds 6. 1

Is it the case that CAAACTAGGTGACCGGAAGGTCAAAGTCCGCATG has PBM binding z-score reaching or exceeding 6? 0

# check: PBM binding z-score of CAAACTAGGTCAAAGGTCAAAGTCGAGCCAACCA is greater than or equal to 6 1

Decide: PBM binding z-score of TATACAGGGTCACAGGCCAGAGTACGAATGTCGA >= 6? 1

Decide: is the reported value of PBM binding z-score for TAGCCTAGATCAGATCGGGCCAGTATACGCTATA equal to or greater than 6? 0

Threshold query (PBM binding z-score >= 6) on GCTTGTAGATCAAGGTTAAGATAGACTAAGCTAA 0
